Please provide measured IC50 for the entries that follow.
Molecular target: hTRPV3 (Homo sapiens (Human), UniProt Q8NET8)
Sequence (Q8NET8 whole entry): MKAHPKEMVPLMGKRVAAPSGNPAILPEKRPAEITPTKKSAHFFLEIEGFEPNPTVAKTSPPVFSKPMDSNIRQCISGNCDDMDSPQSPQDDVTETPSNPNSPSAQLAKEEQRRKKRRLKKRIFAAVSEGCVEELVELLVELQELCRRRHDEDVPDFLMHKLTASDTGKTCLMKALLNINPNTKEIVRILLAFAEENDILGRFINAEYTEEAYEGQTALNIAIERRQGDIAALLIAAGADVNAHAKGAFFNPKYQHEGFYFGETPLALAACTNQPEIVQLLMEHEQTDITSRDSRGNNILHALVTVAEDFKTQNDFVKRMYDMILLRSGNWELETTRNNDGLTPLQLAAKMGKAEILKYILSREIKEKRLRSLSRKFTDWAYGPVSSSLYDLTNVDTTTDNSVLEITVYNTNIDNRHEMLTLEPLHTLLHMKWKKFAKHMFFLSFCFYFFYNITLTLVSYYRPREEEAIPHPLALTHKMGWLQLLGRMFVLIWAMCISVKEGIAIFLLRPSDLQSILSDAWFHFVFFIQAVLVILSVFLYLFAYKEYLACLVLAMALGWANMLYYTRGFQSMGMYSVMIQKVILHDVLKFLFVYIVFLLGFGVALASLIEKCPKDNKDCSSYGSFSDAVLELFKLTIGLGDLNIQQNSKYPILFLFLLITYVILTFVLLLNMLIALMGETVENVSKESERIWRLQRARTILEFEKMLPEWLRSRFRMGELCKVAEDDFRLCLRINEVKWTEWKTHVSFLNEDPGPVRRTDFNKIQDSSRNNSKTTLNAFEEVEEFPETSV
Assay: Whole-cell patch clamp, hTRPV3 Phase 1 / Phase 2 currents
Format: cell-based
Details: Phase 1 current; read-out: hTRPV3 (nM) (Phase 1)
Form entry: value (nM) — number only.

[Q] Reported IC50, compound COC(C)c1ccccc1Oc1ccc(N2CC[C@H](Oc3ccc(F)cn3)C2)c(CCO)c1 (some centres unmarked) : ____
[A] 220

[Q] Reported IC50, compound OCC(O)c1cc(-c2ccccc2)ccc1N1CC[C@H](Oc2ccc(C(F)(F)F)cn2)C1 (some centres unmarked) : ____
[A] 550

[Q] Reported IC50, compound OCc1cc(C(O)c2ccc(F)cc2)ccc1N1CC[C@H](Oc2ncccc2Cl)C1 (some centres unmarked) : ____
[A] 254

[Q] Reported IC50, compound COc1ccccc1Oc1ccc(N2CC[C@H](Oc3ncccc3C)C2)c(CO)c1 : ____
[A] 70.1

[Q] Reported IC50, compound OCCCc1cc(-c2ccccc2)ccc1N1CC[C@H](Oc2ccc(C(F)(F)F)cn2)C1 : ____
[A] 275

[Q] Reported IC50, compound CCc1ccccc1Oc1ccc(N2CC[C@H](Oc3ccc(C#N)cn3)C2)c(CO)c1 : ____
[A] 974
